Where do these numbers come from? They come from ChEMBL document CHEMBL1201862.

- system name: Zinc finger protein mex-5 (Caenorhabditis elegans)
- Sequence (Q9XUB2 whole entry): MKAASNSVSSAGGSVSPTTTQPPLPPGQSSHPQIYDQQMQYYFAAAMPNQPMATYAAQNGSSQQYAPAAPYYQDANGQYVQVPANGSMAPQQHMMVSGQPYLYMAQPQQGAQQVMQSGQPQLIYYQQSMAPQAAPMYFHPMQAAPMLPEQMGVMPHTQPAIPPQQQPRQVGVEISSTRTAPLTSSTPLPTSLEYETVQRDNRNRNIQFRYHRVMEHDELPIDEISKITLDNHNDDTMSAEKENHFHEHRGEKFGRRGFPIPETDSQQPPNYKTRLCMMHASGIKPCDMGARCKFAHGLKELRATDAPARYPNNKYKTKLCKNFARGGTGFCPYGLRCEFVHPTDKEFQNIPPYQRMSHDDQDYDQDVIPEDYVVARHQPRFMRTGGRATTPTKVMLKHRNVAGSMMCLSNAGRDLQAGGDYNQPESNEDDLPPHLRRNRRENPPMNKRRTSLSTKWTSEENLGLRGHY
- test details: MEX-5/TCR-2 RNA interaction inhibitors, dose response, biochemical, C. elegans, fluorescence polarization (AID 1960)
Active and inactive are the calls of the source. Rule as the data show it: actives have a measured EC50 and inactives only a lower limit.
Recorded EC50 for the following molecules
measured attribute: EC50

>>> result("CCN(CC)C(=O)c1ccc2c(c1)C1C(Cl)C(Sc3ccccc3[N+](=O)[O-])CC1C(C(=O)O)N2 (stereo unspecified)")
"15.4 µM (inconclusive)"
>>> result("COc1cc2c(cc1C1C(C#N)=C(N)OC3=C1C(=O)CC(C)(C)C3)OCO2 (stereo unspecified)")
"> 300 µM (not active)"
>>> result("Cc1noc(C)c1S(=O)(=O)NC1CCN(Cc2ccccc2)CC1")
"35.3 µM (active)"
>>> result("CC(/C=C1\\N=C(SCc2ccccc2Cl)SC1=O)=C\\c1ccccc1")
"> 300 µM (not active)"
>>> result("O=C(NN=Cc1sc(=O)[n-]c1-[n+]1ccc(-c2ccncc2)cc1)c1ccccc1O")
"10.7 µM (active)"
>>> result("N#CC1=C(N)OC2=C(C(=O)CCC2)[C@]12C(=O)N(CC(N)=O)c1ccccc12")
"> 300 µM (not active)"
>>> result("CSc1nnc(N2C(=O)C(O)=C(C(=O)c3ccco3)C2c2cccc(Cl)c2)s1 (stereo unspecified)")
"14.3 µM (active)"
>>> result("CCN(CC)Cc1cc(O)c(CN(CC)CC)cc1O")
"2.77 µM (active)"
>>> result("CCCCn1c(=O)[nH]c(=O)c2c1nc(-c1ccc(-c3ccccc3Br)o1)n2CCOC")
"> 300 µM (not active)"
>>> result("O=C1CCC/C1=c1\\s/c(=C\\c2cccnc2)c(=O)n1-c1ccccc1")
"42 µM (active)"
>>> result("Cc1cccc(C(=O)NCCCNC(=O)c2cccc(C)c2)c1")
"> 300 µM (not active)"

* * *

- test details: inhibitors of intracellular T. cruzi replication, confirmation, NIH3T3 host cells, beta-gal luminescence (AID 2044);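 also: intracellular parasites grown in NIH/3T3 mouse fibroblasts as host cells; luminescent beta-galactosidase reporter signal from transgenic T. cruzi replicating inside host cells; inhibitors lower the luminescence signal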
- Type: functional, cell-based
The source made the active and inactive calls. No stated cut-off is given here; in the data, actives have a measured EC50 and inactives only a lower limit.
measured attribute: EC50

>>> result("COc1ccc(NC(=O)CCN2CCN(C/C=C/c3ccccc3)CC2)cc1")
"0.686 µM (active)"
>>> result("COc1ccc(CC2(CO)CCN(CC3=Cc4cc(Cl)ccc4OC3)CC2)cc1")
"1.68 µM (active)"
>>> result("CCOC(=O)c1sc(NC(=O)CN2C(=O)NC3(CC(C)CC(C)(C)C3)C2=O)cc1C (stereo unspecified)")
"2.17 µM (active)"
>>> result("O=C1CC(NS(=O)(=O)c2ccc([N+](=O)[O-])cc2)CN1c1cccc(F)c1 (stereo unspecified)")
"1.08 µM (active)"
>>> result("O=C(N/N=C/c1ccc(O)cc1)Nc1cccc2nsnc12")
"0.356 µM (active)"
>>> result("COC(=O)c1c(NC(=O)COc2ccc(Cl)cc2)sc2c1CC(C)(C)NC2(C)C")
"1.54 µM (active)"

* * *

- system name: RNA-binding protein pos-1 (Caenorhabditis elegans, UniProt G5EF15)
- Sequence (G5EF15 whole entry, the tested form may be a part): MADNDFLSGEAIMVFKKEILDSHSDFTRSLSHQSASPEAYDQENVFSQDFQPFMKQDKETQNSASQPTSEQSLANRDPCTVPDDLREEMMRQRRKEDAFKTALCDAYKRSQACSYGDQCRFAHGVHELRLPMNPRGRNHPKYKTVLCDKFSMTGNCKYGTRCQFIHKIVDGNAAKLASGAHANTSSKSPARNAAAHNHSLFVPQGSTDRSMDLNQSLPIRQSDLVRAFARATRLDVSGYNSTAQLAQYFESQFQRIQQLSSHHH
- test details: inhibitors of POS-1/mex-3 RNA binding, dose response, biochemical, fluorescence polarization (AID 1964);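 also: purified POS-1 fused to maltose binding protein made in E. coli; potency of compounds blocking POS-1 binding to fluorescent RNA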
Calls of active or inactive are those of the source. No stated cut-off is given here; in the data, actives have a measured EC50 and inactives only a lower limit.
Reported EC50 values follow for various molecules
measured attribute: EC50

>>> result("CSc1nnc(N2C(=O)C(O)=C(C(=O)c3ccco3)C2c2cccc(Cl)c2)s1 (configuration not stated)")
"31.3 µM (active)"
>>> result("CC(/C=C1\\N=C(SCc2ccccc2Cl)SC1=O)=C\\c1ccccc1")
"> 300 µM (not active)"
>>> result("Cc1cccc(C(=O)NCCCNC(=O)c2cccc(C)c2)c1")
"> 300 µM (not active)"
>>> result("O=C1CCC/C1=c1\\s/c(=C\\c2cccnc2)c(=O)n1-c1ccccc1")
"> 300 µM (not active)"
>>> result("CCCCn1c(=O)[nH]c(=O)c2c1nc(-c1ccc(-c3ccccc3Br)o1)n2CCOC")
"> 300 µM (not active)"
>>> result("COc1cc2c(cc1C1C(C#N)=C(N)OC3=C1C(=O)CC(C)(C)C3)OCO2 (configuration not stated)")
"> 300 µM (not active)"
>>> result("CCN(CC)Cc1cc(O)c(CN(CC)CC)cc1O")
"14.2 µM (active)"
>>> result("N#CC1=C(N)OC2=C(C(=O)CCC2)[C@]12C(=O)N(CC(N)=O)c1ccccc12")
"> 300 µM (not active)"
>>> result("CCN(CC)C(=O)c1ccc2c(c1)C1C(Cl)C(Sc3ccccc3[N+](=O)[O-])CC1C(C(=O)O)N2 (configuration not stated)")
"> 300 µM (inconclusive)"
>>> result("Cc1noc(C)c1S(=O)(=O)NC1CCN(Cc2ccccc2)CC1")
"49.2 µM (active)"
>>> result("COc1ccc(N2C(=O)/C(=C/c3ccco3)C(=O)NC2=S)cc1")
"5.3 µM (active)"
>>> result("O=C(NN=Cc1sc(=O)[n-]c1-[n+]1ccc(-c2ccncc2)cc1)c1ccccc1O")
"11.9 µM (active)"
